tested.target: CFTR-G1349D (Homo sapiens, UniProt P13569, G1349D)
Construct: expressed in transfected cells
Sequence (P13569 whole entry G1349D): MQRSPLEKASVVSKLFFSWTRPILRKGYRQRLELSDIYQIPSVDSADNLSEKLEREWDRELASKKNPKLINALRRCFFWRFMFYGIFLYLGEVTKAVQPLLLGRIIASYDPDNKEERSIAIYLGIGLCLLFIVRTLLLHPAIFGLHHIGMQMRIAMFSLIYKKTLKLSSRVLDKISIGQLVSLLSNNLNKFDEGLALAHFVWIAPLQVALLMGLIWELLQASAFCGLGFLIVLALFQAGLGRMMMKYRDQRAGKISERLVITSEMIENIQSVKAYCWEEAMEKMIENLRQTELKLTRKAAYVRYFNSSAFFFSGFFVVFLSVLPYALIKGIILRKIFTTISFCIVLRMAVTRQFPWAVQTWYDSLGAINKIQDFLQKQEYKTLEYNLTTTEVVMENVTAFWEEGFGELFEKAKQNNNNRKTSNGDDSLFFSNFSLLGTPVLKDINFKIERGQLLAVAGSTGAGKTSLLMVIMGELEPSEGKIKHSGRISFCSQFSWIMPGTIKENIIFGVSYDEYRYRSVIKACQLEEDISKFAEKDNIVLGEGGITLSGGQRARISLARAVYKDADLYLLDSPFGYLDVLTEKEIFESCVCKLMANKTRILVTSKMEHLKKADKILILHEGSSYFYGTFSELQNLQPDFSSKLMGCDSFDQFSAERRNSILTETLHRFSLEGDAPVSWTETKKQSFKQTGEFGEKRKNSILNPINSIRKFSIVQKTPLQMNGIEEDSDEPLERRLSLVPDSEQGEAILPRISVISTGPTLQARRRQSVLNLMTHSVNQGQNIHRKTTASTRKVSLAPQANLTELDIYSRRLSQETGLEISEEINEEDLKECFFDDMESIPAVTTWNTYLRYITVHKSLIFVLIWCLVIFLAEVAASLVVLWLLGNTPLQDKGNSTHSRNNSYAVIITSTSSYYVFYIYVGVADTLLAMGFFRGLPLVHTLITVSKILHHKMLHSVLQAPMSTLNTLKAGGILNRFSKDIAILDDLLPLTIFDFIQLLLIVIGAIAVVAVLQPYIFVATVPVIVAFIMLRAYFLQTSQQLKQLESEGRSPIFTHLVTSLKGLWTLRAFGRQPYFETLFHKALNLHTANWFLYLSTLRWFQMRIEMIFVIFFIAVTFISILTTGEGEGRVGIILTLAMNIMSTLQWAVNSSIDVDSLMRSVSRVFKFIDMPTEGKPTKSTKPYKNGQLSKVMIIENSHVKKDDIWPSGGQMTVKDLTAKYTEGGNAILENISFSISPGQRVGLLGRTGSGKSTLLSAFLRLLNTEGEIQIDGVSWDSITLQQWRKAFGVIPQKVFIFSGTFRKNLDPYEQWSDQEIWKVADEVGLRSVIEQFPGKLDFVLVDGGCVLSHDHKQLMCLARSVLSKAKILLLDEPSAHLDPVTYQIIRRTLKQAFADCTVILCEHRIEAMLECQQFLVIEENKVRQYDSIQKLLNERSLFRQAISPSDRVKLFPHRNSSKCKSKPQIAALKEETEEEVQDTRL
test.name: YFP-halide influx assay for the CFTR-G1349D
Assay type: cell-based
readout.kind: % Activation (%)

>  <molecule>
Nc1cc(S(=O)(=O)c2ccc(F)cc2)cnc1C(=O)NC[C@@H](O)C(F)(F)F [Compound 36]

>  <tested.target>
CFTR-G1349D (Homo sapiens, UniProt P13569, G1349D)

>  <data.value>
82.7

$$$$
>  <molecule>
Nc1cc(S(=O)(=O)c2ccc(OC(F)(F)F)cc2)cnc1C(=O)N1CC(OCC(F)F)C1 [Compound 119]

>  <tested.target>
CFTR-G1349D (Homo sapiens, UniProt P13569, G1349D)

>  <data.value>
84.8

$$$$
>  <molecule>
CC(C)(O)CNC(=O)c1ncc(S(=O)(=O)c2ccc(OC(F)(F)F)cc2)cc1N [Compound 1]

>  <tested.target>
CFTR-G1349D (Homo sapiens, UniProt P13569, G1349D)

>  <data.value>
69.6

$$$$
>  <molecule>
COC[C@H](O)CNC(=O)c1ncc(S(=O)(=O)c2ccccc2OC(F)(F)F)cc1N [Compound 177]

>  <tested.target>
CFTR-G1349D (Homo sapiens, UniProt P13569, G1349D)

>  <data.value>
96.0

$$$$
>  <molecule>
Nc1cc(S(=O)(=O)N2CCC(C(F)(F)F)CC2)cnc1C(=O)NCC(O)C(F)(F)F (stereo not drawn) [Compound 95]

>  <tested.target>
CFTR-G1349D (Homo sapiens, UniProt P13569, G1349D)

>  <data.value>
71.97

$$$$

P: Nc1cc(S(=O)(=O)c2ccccc2OC(F)(F)F)cnc1C(=O)N1CC(O)(C(F)(F)F)C1 [Compound 85]
Q: CCC1(F)CN(C(=O)c2ncc(S(=O)(=O)c3ccc(OC(F)(F)F)cc3)cc2N)C1 [Compound 130]
**Query** Which of these two has the smaller recorded % Activation: P or Q ? Respond using the label that marks the chosen record.
**Result** Q

###

tested.target: CFTR ΔF508 mutant (Homo sapiens, UniProt P13569, DEL508-508)
Sequence (P13569 with tags, fused parts or gaps DEL508-508): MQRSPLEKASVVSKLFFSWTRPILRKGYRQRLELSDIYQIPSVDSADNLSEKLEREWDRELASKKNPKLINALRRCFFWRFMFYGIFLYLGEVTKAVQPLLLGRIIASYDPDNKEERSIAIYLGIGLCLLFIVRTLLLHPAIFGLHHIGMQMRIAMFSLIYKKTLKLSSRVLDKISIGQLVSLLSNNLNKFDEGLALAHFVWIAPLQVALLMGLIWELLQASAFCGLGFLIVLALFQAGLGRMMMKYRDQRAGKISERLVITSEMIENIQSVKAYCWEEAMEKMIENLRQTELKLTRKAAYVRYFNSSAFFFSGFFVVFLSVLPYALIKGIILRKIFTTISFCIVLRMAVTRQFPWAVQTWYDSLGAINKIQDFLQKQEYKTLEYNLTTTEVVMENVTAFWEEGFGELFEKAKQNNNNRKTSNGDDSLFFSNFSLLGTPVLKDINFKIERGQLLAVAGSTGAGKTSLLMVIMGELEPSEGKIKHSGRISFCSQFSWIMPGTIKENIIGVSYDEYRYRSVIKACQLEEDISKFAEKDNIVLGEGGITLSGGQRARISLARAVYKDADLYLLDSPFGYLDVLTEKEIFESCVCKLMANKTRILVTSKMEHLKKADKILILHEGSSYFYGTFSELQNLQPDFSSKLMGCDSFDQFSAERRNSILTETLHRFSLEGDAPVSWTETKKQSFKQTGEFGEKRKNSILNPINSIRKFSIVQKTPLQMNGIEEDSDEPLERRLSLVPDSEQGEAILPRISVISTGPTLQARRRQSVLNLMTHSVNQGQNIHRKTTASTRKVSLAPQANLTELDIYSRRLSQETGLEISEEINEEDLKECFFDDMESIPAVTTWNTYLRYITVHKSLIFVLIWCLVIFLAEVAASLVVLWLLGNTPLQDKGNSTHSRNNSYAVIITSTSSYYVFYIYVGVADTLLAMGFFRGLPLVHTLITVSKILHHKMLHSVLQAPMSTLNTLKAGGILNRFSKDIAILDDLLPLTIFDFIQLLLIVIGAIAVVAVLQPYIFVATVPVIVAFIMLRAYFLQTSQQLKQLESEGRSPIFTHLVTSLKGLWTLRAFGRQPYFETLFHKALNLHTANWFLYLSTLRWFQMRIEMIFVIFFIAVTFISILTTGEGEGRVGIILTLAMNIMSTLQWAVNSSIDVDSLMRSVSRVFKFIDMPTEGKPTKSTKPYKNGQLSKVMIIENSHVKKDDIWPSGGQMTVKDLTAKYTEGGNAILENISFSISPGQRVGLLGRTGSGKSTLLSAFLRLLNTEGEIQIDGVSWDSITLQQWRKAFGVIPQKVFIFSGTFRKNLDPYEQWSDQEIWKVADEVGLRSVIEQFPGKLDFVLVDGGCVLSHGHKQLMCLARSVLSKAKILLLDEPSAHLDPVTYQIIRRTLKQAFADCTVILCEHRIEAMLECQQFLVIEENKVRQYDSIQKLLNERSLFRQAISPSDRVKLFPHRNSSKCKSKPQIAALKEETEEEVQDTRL
test.name: YFP-halide influx assay for the CFTR-ΔF508 mutation (CFBE41o- cells)
measurement.context: forskolin 10.67 μM, from (1−F/F0) vs concentration plot
Protocol: The YFP halide influx assay measured the functionality of the cystic fibrosis Transmembrane Conductance regulator (CFTR) channels in the cystic fibrosis bronchial epithelium cell line CFBE41o-. The assay was used to evaluate the capacity of compounds to increase the open probability of existing CFTR channels in the membrane. […] The I-induced quenching of fluorescence was recorded on an immediately after injection of iodide for 2 minutes on an FDSS/μCell (Hamamatsu). […]
readout.kind: EC50 (µM)

See these solved cases before continuing.
>  <compound>
CC(C)(C)c1ccc(S(=O)(=O)c2cnc(C(=O)NCC(O)C(F)(F)F)c(N)c2)cc1 (stereo not shown) [Compound 247]

>  <EC50, µM>
0.0043

$$$$
>  <compound>
CC(C)C(CO)NC(=O)c1ncc(S(=O)(=O)c2ccc(OC(F)(F)F)cc2)cc1N (stereo not shown) [Compound 13]

>  <EC50, µM>
0.0399

$$$$
>  <compound>
Nc1cc(S(=O)(=O)c2ccc(OC(F)(F)F)cc2)cnc1C(=O)NC[C@@H](O)COCC1CC1 [Compound 251]

>  <EC50, µM>
0.0163

$$$$

P: Nc1cc(S(=O)(=O)c2ccc(OC(F)(F)F)cc2)cnc1C(=O)NNC(=O)CO [Compound 287]
Q: CC(O)(CNC(=O)c1ncc(S(=O)(=O)c2ccc(OC(F)(F)F)cc2)cc1N)C(F)(F)F (stereo not shown) [Compound 2]
**Query** Could you please tell me which of these two has the higher EC50: P or Q ? Respond using the label that marks the chosen record.
**Result** P
(P: 0.256 µM, Q: 0.0043 µM)

A: Nc1cc(S(=O)(=O)c2ccc(C(F)(F)F)cc2F)cnc1C(=O)NCC(O)COCC(F)(F)F (stereo not shown) [Compound 213]
B: COCC(O)CNC(=O)c1ncc(S(=O)(=O)c2ccc(OC(F)(F)F)cc2)cc1N (stereo not shown) [Compound 3]
**Query** Which of these two has the smaller recorded EC50: A or B ? Respond using the label that marks the chosen record.
**Result** A
(A: 0.006 µM, B: 0.0177 µM)

// provenance: patent US10047051B2
